Hello, the source for this data is ChEMBL document CHEMBL1149173, in case you need it.

- Tested on: L1210
- Assay Procedure: Inhibitory concentration required to inhibit murine leukemia L1210 cells proliferation
- Assay type: functional, cell-based
- Conditions: Mus musculus
Reported Endpoint: IC50 (µM)
Reply with just the number (in µM).

// solved cases for IC50 follow
> print(dat)
                                   compound  unit  result.value
1  C=C1CC(COc2cc(C(=O)O)n(C)n2)(c2ccc(-c3ccccc3)cc2)OC1=O (centres undefined)    µM          14.8
2  C=C1CC(COc2cc(C(=O)O)n(C)n2)(c2ccccc2)OC1=O (centres undefined)    µM           107
3  C=C1CC(COc2cc(C(=O)O)n(C)n2)(c2ccc(Cl)cc2)OC1=O (centres undefined)    µM            13

The compound identified as C=C1CC(C)(COc2cc(C(=O)O)n(C)n2)OC1=O (centres undefined) registered its IC50 at 522
